Tested on: Streptococcus pyogenes SSI-9
protocol notes: Antibacterial activity assay of bead-derived peptides (three concentrations)
Assay type: cell-based
Parameters: key: +++: inhibition by the 640-fold diluted peptide solution; ++: inhibition by the 160-fold diluted solution; +: inhibition by the 40-fold diluted solution; -: no inhibition
condition info: S. pyogenes, bead-derived peptide solution, three concentrations
Where a SMILES comes first, the peptide text is derived from it. [ ]: non-standard residue; d: D form. The star is where a group is joined. NHCH2CH2OH = OCCN*; For = O=C*

compound	antibacterial activity
CC(C)C[C@@H](NC(=O)[C@H](Cc1c[nH]c2ccccc12)NC(=O)[C@H](NC(=O)[C@H](Cc1c[nH]c2ccccc12)NC(=O)[C@@H](CC(C)C)NC(=O)[C@@H](NC(=O)[C@H](NC(=O)[C@H](C)NC(=O)[C@H](NC(=O)[C@H](C)NC(=O)CNC(=O)[C@@H](NC=O)C(C)C)C(C)C)C(C)C)C(C)C)C(C)C)C(=O)N[C@@H](Cc1c[nH]c2ccccc12)C(=O)N[C@@H](C(=O)N[C@@H](Cc1c[nH]c2ccccc12)C(=O)NCCO)C(C)C [compound 2120] (For-VGA[dV]A[dV]V[dL]W[dV]W[dL]W[dV]W-NHCH2CH2OH)	++
CNC(=O)C[C@@H](NC(=O)[C@H](Cc1c[nH]c2ccccc12)NC(=O)[C@@H](CC(C)C)NC(=O)[C@H](Cc1c[nH]c2ccccc12)NC(=O)[C@H](NC(=O)[C@H](Cc1c[nH]c2ccccc12)NC(=O)[C@H](NC(=O)[C@@H](NC(=O)[C@@H](CC(C)C)NC(=O)[C@H](C)NC(=O)[C@H](NC(=O)[C@H](C)NC(=O)CNC(=O)[C@@H](NC=O)C(C)C)C(C)C)C(C)C)C(C)C)C(C)C)C(=O)N[C@@H](Cc1c[nH]c2ccccc12)C(=O)NCCO [compound 13317] (For-VGA[dV]A[dL]V[dV]W[dV]W[dL]W[dD](NHMe)W-NHCH2CH2OH)	-

Reference source: paper PMC7531004
